Test system: NCI-H226
experiment-description: NCI tumour cell line growth inhibition, 48 h
The source made the active and inactive calls. Rule as the data show it: active = GI50 up to about 1.1 µM and inactive = higher.
readout-name: GI50

Check out these entries, answers already filled in.
[[record]]
compound = "O=C(NO)c1cccc(OCc2ccc(Br)cc2)c1"
obs_value = "3.78 µM (inactive)"

[[record]]
compound = "CC(=O)OCCCCn1cnc2c(Cl)nc(Nc3ccccc3)nc21"
obs_value = "> 100 µM (inactive)"

[[record]]
compound = "CCOC(=O)c1c(-c2ccccc2)c(C(OC(c2ccccc2)c2c(-c3ccccc3)c(C(=O)OCC)n3ccccc23)c2ccccc2)c2ccccn12 (configuration not stated)"
obs_value = "> 100 µM (inactive)"

[[record]]
compound = "COc1ccc2cc3c4cc(OC)c(OC)cc4ccn3c2c1"
obs_value = "> 100 µM (inactive)"

[[record]]
compound = "CC(=O)N1C/C(=C\\c2ccccc2)C(=O)/C(=C/c2ccccc2)C1"
obs_value = "17.4 µM (inactive)"

[[record]]
compound = "O=C1/C(=N/N=C(c2ccccc2)c2ccccc2)c2ccccc2-c2ccccc21"
obs_value = "38.5 µM (inactive)"

[[record]]
compound = "COc1ccc(C(=O)O)c(Cc2cccc3ccccc23)c1"
obs_value = "> 100 µM (inactive)"

[[record]]
compound = "O=C(OC(=C(c1ccccc1)c1ccccc1)N1CCCC1=S)C(c1ccccc1)c1ccccc1"
obs_value = "4.78 µM (inactive)"


For each of the compounds below, note its GI50.
1. O=C1/C(=C/c2ccco2)NC(=S)N1CN1CCOCC1
2. CCOC(=O)c1nc2ccccc2n(CC)c1=O
3. Cc1ccc2c(c1)CC1(C2)Cc2ccc(C)cc2C1=O (configuration not stated)
4. O=C(O)C(Br)C(Br)C(=O)O (configuration not stated)

1. > 100 µM (inactive)
2. > 100 µM (inactive)
3. 11.5 µM (inactive)
4. > 100 µM (inactive)

###

System: OVCAR-3
experiment-description: NCI tumour cell line growth inhibition, 48 h
Calls of active or inactive are those of the source. Rule as the data show it: active = GI50 up to about 1.1 µM and inactive = higher.
Form entry, call: pick from true for active, false for inactive

Could you kindly confirm the outcome this assay logged for `CONC(C)=O` ?
false

Could you kindly confirm the outcome this assay logged for O=C1/C(=C/c2ccccc2)CCC/C1=C\c1ccccc1 [2,6-DIBENZYLIDENECYCLOHEXANONE] ?
false

Could you kindly confirm the outcome this assay logged for CC1(C)C2CCC3(OCCO3)C1C1OC12 (stereo not given) ?
false

Could you kindly confirm the outcome this assay logged for `CN(C)C(=S)SCC(N)=O` ?
false

###

So I've got a bunch of compounds here, and I need their GI50 values.
System: TK-10
experiment-description: NCI tumour cell line growth inhibition, 48 h
Active and inactive are the calls of the source. Cut-off read from the data, not from the text of the source: active = GI50 up to about 1.1 µM and inactive = higher.

[[record]]
compound = "NC1CC(=O)c2cscc21 (stereo unspecified)"
readout_name = "GI50"
obs_value = "19.1 µM (inactive)"

[[record]]
compound = "CN1CCN=C1c1nnn(-c2ccc([N+](=O)[O-])cc2)c1-c1ccccc1"
readout_name = "GI50"
obs_value = "> 100 µM (inactive)"

[[record]]
compound = "CC1=Nc2ccccc2C12C(c1ccccc1)C(c1ccccc1)C(=O)N1c3ccccc3CC12 (stereo unspecified)"
readout_name = "GI50"
obs_value = "> 100 µM (inactive)"


For each of the compounds below, note its GI50.
1. COC(=O)[C@]12CC[C@H]3CN(C(=O)OCc4ccccc4)[C@H]([C@H]31)[C@H](c1ccco1)N2
2. Cc1ccc(-c2nnc3s/c(=C\c4ccc(N(C)C)cc4)c(=O)n23)cc1
3. CC1=C2C3OC(=O)C(C)C3C(O)C[C@@]2(C)C(=O)CC1 (stereo partly specified)

1: > 100 µM (inactive); 2: > 100 µM (inactive); 3: > 100 µM (inactive)

The origin of these recorded values is ChEMBL document CHEMBL1201862.
